All values here come from patent US20080081825A1.

target: recombinant human p38α MAP kinase (Homo sapiens, UniProt Q16539); assay: Study on p38α MAP kinase inhibitory activity (ATF-2 phosphorylation, Alpha Screen); settings: ATF2 substrate, ATP 90 μmol/L
Sequence (Q16539 whole entry): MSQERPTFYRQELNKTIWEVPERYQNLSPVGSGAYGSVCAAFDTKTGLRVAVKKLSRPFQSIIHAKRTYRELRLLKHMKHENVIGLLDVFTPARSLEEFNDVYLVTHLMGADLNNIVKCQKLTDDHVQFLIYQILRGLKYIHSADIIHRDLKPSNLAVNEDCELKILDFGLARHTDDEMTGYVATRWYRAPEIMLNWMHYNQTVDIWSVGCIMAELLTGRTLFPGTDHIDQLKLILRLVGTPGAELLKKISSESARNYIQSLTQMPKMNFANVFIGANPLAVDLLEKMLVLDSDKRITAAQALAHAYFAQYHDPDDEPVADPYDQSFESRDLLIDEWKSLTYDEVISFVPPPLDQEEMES
For each record, write down the corresponding IC50.
Response body: numeric value in nM, unit text excluded.

// returns reported IC50 for input `O=c1ccc(C(=NO)c2ccc(F)cc2F)cn1-c1c(Cl)cccc1Cl`
4.9

I have this molecule here, `Cc1cc(C)c(-n2cc(C(=NOC3CCN(C)CC3)c3ccc(F)cc3F)ccc2=O)c(C)c1` , and I need its recorded IC50.
20.5

Given the molecule `Cc1cc(F)cc(C)c1-n1cc(/C(=N/OC2CCN(C)CC2)c2ccc(F)cc2F)ccc1=O` , what is its reported IC50?
34
